experimental-details: Volume of distribution in humans
study-conditions: human
test-readout: Vd (L/kg)
The answer is to be given in L/kg; state only the numeric part.

### Prompt Report Vd for Cn1c(=O)c2[nH]cnc2n(C)c1=O
### Response 0.551
